// reported log10 FACS M2-HK MFI per item
# ASSAY_SYSTEM: M2 protein of influenza A/Hong Kong/483/97 (H5N1) (Influenza A virus A/Hong Kong/483/97)
Hi team, quick reminder: these entries are log10 of FACS M2-HK MFI (MFI).

3362_B11 (antibody, V domains shown) VH: QVQLQASGPGLVKPSETLSLTCTVSGDSITSGAYYWTWIRQHPGKGLEWIGYIYYSGNTYYNPSLKSRVTISLDTSKNQFSLKVNSVTAADTAVYYCARAASTSVLGYGMDVWGQGTTVTVSS VL: DIQMTQSPSSLSASVGDRVTITCRASQSISRYLNWYQQEPGKAPKLLVYAASSLQSGVPSRFSGSGSGTDFTLTISSLQPEDFATYYCQQSYSTPLTFGQGTRLEIK :: 2.34
3245_O19 (antibody, V domains shown) VH: EVQLVESGGGLVQPGGSLRLSCTASGLSVSSTYMNWVRQAPGKGLEWVSVFYSETRTYYADSVKGRFTVSRHNSNNTLYLQMNSLRVEDTAVYYCARVQRLSYGMDVWGQGTTVTVSS VL: DIQMTQSPSSLSASVGDRVTITCRASQSISTYLNWYQKRPGKAPKLLVYGASTLQSGVPSRFSGSGSGTDFTLTIASLQPEDSATYYCQQTYSIPLFGQGTRLEIK :: 2.96
3244_I10 (antibody, V domains shown) VH: QVQLQESGPGLLKPSDTLALTCTVSGGSITSDYWSWIRQPPGRGLDWIGFFYNGGSTKYNPSLKSRVTISADTSKNQLSLKLTSVTAADTGVYYCARHDAKFSGSYYVASWGQGTRVTVSS VL: DIQMTQSPSSLSASVGDRVTISCRASQSISTYLNWYQQQPGKAPKVLIFGATNLQSGVPSRFSGSGSGTDFTLTISSLQPEDFATYYCQQSYNTPLIFGQGTKLEIK :: 2.64
3242_P05 (antibody, V domains shown) VH: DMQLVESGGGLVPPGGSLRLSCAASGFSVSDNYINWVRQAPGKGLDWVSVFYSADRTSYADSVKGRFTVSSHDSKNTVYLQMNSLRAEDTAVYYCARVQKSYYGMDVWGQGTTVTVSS VL: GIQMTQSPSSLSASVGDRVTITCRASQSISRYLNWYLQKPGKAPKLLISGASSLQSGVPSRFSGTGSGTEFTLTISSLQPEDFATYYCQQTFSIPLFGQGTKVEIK :: 2.78
3253_P10 (antibody, V domains shown) VH: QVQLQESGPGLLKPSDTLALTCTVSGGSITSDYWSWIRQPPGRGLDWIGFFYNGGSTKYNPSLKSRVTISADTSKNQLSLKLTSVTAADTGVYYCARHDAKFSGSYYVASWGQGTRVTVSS VL: DIQMTQSPSSLSASVGDRVTISCRASQSISTYLNWYQQQPGKAPKVLISGATDLQSGVPSRFSGSGSGTDFTLTISSLQPEDFATYYCQQSYNTPLIFGQGTKLEIK :: 1.63

Okay, next one:
Inquiry: Fill blank: measured log10 FACS M2-HK MFI of the binder 3136_G05 (antibody, V domains shown) VH: QVQLQESGPGLVKPSETLSLTCSVSGGSISSDFWSWIRQPPGKGLEWIGYVYNRGSTKYSPSLKSRVTISADMSKNQFSLNMSSVTAADTAVYYCAKNGRSSTSWGIDVWGKGTTVTVSS VL: DIQMTQSPSSLSASVGDRLTITCRASQSISTYLHWYQQKPGKAPKLLIYAASSLQSGVPSRFSGSRSGTDFTLTISSLQPDDFATYYCQQSYSPPLTFGPGTKVDMK is ____.
Reply text: 2.04
